Recorded measurements of inhibition of growth at 10 µM, one per entry
Experiment: Growth inhibition of human HCT116 cells at 10^-5 M after 48 hrs by SRB assay
Assay type: functional
Details: HCT-116, 48 h, read-out: GI
// note: answer is a bare numeric in %

A selection of reference data follows.
CHEMICAL_SMILES | OUTPUT_UNIT | EXPERIMENTAL_VALUE
COC(=O)c1c(C(=O)OC)c2cc(N(C)C)ccn2c1C(=O)c1cc(OC)c(OC)c(OC)c1 | % | 0
CCOC(=O)c1cc(C(=O)c2ccc(OC)cc2)n2cc(C)cc(C)c12 | % | 23
CCOC(=O)c1cc(C(=O)c2cc(OC)c(OC)c(OC)c2)n2ccc(OC)cc12 | % | 18

Task item: Identify measured inhibition of growth at 10 µM corresponding to CCOC(=O)c1cc(C(=O)c2cc(OC)c(OC)c(OC)c2)n2cc(C)cc(C)c12
Reply: 45

Task item: Identify measured inhibition of growth at 10 µM corresponding to CCOC(=O)c1cc(C(=O)c2cc(OC)c(OC)c(OC)c2Br)n2ccc(OC)cc12
Reply: 31

Task item: Identify measured inhibition of growth at 10 µM corresponding to COc1cc(C(=O)c2cc(C#N)c3c(C#N)cccn23)cc(OC)c1OC
Reply: 11

Task item: Identify measured inhibition of growth at 10 µM corresponding to CCOC(=O)c1c2c(O)nnc(-c3cc(OC)c(OC)c(OC)c3)c2n2cc(C)cc(C)c12
Reply: 6

Task item: Identify measured inhibition of growth at 10 µM corresponding to CCOC(=O)c1cc(C(=O)c2cc(OC)c(OC)c(OC)c2)n2c(C)cccc12
Reply: 91

Task item: Identify measured inhibition of growth at 10 µM corresponding to COC(=O)c1c(C(=O)OC)c2cc(OC)ccn2c1C(=O)c1cc(OC)c(OC)c(OC)c1
Reply: 2

Task item: Identify measured inhibition of growth at 10 µM corresponding to COc1ccc(C(=O)c2cc(C#N)c3c(C)cc(C)cn23)cc1
Reply: 80

====

Experiment: Inhibition of sheep brain tubulin polymerization by fluorescence assay
Set-up: species or system Ovis aries
pIC50: −log10 of the molar value.
I would appreciate it if you labelled entries criterion met when pIC50 is 4 or higher, otherwise criterion not met.

COMPOUND | ASSIGNED_LABEL
CCOC(=O)c1cc(C(=O)c2cc(OC)c(OC)c(OC)c2)n2cc(C)ccc12 | criterion met
CCOC(=O)c1cc(C(=O)c2cc(OC)c(OC)c(OC)c2)n2cccc(C#N)c12 | criterion met
CCOC(=O)c1cc(C(=O)c2cc(OC)c(OC)c(OC)c2)n2ccc(C)cc12 | criterion met
COc1ccc(C(=O)c2cc(OC)c(OC)c(OC)c2)cc1O [PHENSTATIN] | criterion met

Next item in the queue.
Task item: Decide: is the reported value of pIC50 for CCOC(=O)c1c(C(=O)OCC)c2cccc(C)n2c1C(=O)c1cc(OC)c(OC)c(OC)c1 equal to or greater than 4?
Reply: criterion not met

====

Experiment: Growth inhibition of human HOP92 cells at 10^-5 M after 48 hrs by SRB assay
Format: functional
Settings: HOP-92, 48 h, read-out: GI
I would appreciate it if you labelled entries 1.0 when inhibition of growth at 10 µM is 8% or higher, otherwise 0.0.

CHEMICAL_SMILES | ASSIGNED_LABEL
CCOC(=O)c1cc(C(=O)c2cc(OC)c(OC)c(OC)c2Br)n2ccc(OC)cc12 | 1.0
COC(=O)c1c(C(=O)OC)c2cc(N(C)C)ccn2c1C(=O)c1cc(OC)c(OC)c(OC)c1 | 1.0
CCOC(=O)c1cc(C(=O)c2cc(OC)c(OC)c(OC)c2)n2c(C)cccc12 | 1.0

Task item: Decide: is the reported value of inhibition of growth at 10 µM for COc1cc(C(=O)c2cc(C#N)c3cc(C#N)ccn23)cc(OC)c1OC equal to or greater than 8%?
Reply: 0.0

Task item: Decide: is the reported value of inhibition of growth at 10 µM for COC(=O)c1c(C(=O)OC)c2cc(C)ccn2c1C(=O)c1cc(OC)c(OC)c(OC)c1 equal to or greater than 8%?
Reply: 0.0

Task item: Decide: is the reported value of inhibition of growth at 10 µM for COC(=O)c1c2c(O)nnc(-c3ccc(OC)cc3)c2n2cc(C)cc(C)c12 equal to or greater than 8%?
Reply: 1.0

Task item: Decide: is the reported value of inhibition of growth at 10 µM for COC(=O)c1c(C(=O)OC)c2cc(OC)ccn2c1C(=O)c1ccc(OC)cc1 equal to or greater than 8%?
Reply: 0.0

Task item: Decide: is the reported value of inhibition of growth at 10 µM for CCOC(=O)c1cc(C(=O)c2cc(OC)c(OC)c(OC)c2)n2cccc(C#N)c12 equal to or greater than 8%?
Reply: 1.0

Task item: Decide: is the reported value of inhibition of growth at 10 µM for CCOC(=O)c1c2c(O)nnc(-c3cc(OC)c(OC)c(OC)c3)c2n2cc(C)cc(C)c12 equal to or greater than 8%?
Reply: 0.0

====

Recorded measurements of inhibition of growth at 10 µM, one per entry
Tested on: T47D
Experiment: Growth inhibition of human T47D cells at 10^-5 M after 48 hrs by SRB assay
Assay type: functional
Conditions: Homo sapiens, T47D, 48 h; read-out: GI
// note: answer is a bare numeric in %

A selection of reference data follows.
CHEMICAL_SMILES | inhibition of growth at 10 µM, %
CCOC(=O)c1cc(C(=O)c2cc(OC)c(OC)c(OC)c2)n2c(C)cccc12 | 63
CCOC(=O)c1cc(C(=O)c2cc(OC)c(OC)c(OC)c2)n2ccc(OC)cc12 | 5
CCOC(=O)c1c2c(O)nnc(-c3cc(OC)c(OC)c(OC)c3)c2n2cc(C)cc(C)c12 | 0
COc1cc(C(=O)c2cc(C(=O)O)c3cccc(C)n23)cc(OC)c1OC | 0
CCOC(=O)c1cc(C(=O)c2cc(OC)c(OC)c(OC)c2)n2ccc(N(C)C)cc12 | 5

Task item: Identify measured inhibition of growth at 10 µM corresponding to COc1cc(C(=O)c2cc(C#N)c3c(C#N)cccn23)cc(OC)c1OC
Reply: 10

Task item: Identify measured inhibition of growth at 10 µM corresponding to COc1ccc(C(=O)c2cc(C#N)c3c(C)cc(C)cn23)cc1
Reply: 60

Task item: Identify measured inhibition of growth at 10 µM corresponding to CCOC(=O)c1cc(C(=O)c2cc(OC)c(OC)c(OC)c2Br)n2ccc(OC)cc12
Reply: 36

Task item: Identify measured inhibition of growth at 10 µM corresponding to COc1cc(C(=O)c2cc(C#N)c3cc(C#N)ccn23)cc(OC)c1OC
Reply: 6

Task item: Identify measured inhibition of growth at 10 µM corresponding to CCOC(=O)c1cc(C(=O)c2ccc(OC)cc2)n2cc(C)cc(C)c12
Reply: 13

Task item: Identify measured inhibition of growth at 10 µM corresponding to COC(=O)c1c(C(=O)OC)c2cc(N(C)C)ccn2c1C(=O)c1ccc(OC)c(OC)c1
Reply: 0

Task item: Identify measured inhibition of growth at 10 µM corresponding to COC(=O)c1c(C(=O)OC)c2cc(OC)ccn2c1C(=O)c1ccc(OC)cc1
Reply: 2

Task item: Identify measured inhibition of growth at 10 µM corresponding to COC(=O)c1c(C(=O)OC)c2cc(OC)ccn2c1C(=O)c1cc(OC)c(OC)c(OC)c1
Reply: 6

====

Organism: Ovis aries
Experiment: Inhibition of sheep brain tubulin polymerization at 100 uM by fluorescence assay
ASSAY_READOUT: inhibition (%)
// note: answer is a bare numeric in %

CHEMICAL_SMILES | inhibition / %
CCOC(=O)c1cc(C(=O)c2cc(OC)c(OC)c(OC)c2)n2ccc(N(C)C)cc12 | 36
CCOC(=O)c1c(C(=O)OCC)c2cc(C)ccn2c1C(=O)c1cc(OC)c(OC)c(OC)c1 | 39
COC(=O)c1c(C(=O)OC)c2cc(OC)ccn2c1C(=O)c1ccc(OC)cc1 | 34
CCOC(=O)c1cc(C(=O)c2cc(OC)c(OC)c(OC)c2)n2ccc3ccccc3c12 | 41
COC(=O)c1c(C(=O)OC)c2cc(N(C)C)ccn2c1C(=O)c1cc(OC)c(OC)c(OC)c1 | 15

Task item: Identify measured inhibition corresponding to CCOC(=O)c1c(C(=O)OCC)c2cc(N(C)C)ccn2c1C(=O)c1cc(OC)c(OC)c(OC)c1
Reply: 26

====

Species: Ovis aries
Test: Inhibition of sheep brain tubulin polymerization at 100 uM by fluorescence assay
Recorded measurements of inhibition, one per entry
// note: answer is a bare numeric in %

CHEMICAL_SMILES | OUTPUT_UNIT | EXPERIMENTAL_VALUE
COC(=O)c1c(C(=O)OC)c2cc(N(C)C)ccn2c1C(=O)c1ccc(OC)c(OC)c1 | % | 9
CCOC(=O)c1cc(C(=O)c2cc(OC)c(OC)c(OC)c2)n2cc(C)cc(C)c12 | % | 3
CCOC(=O)c1cc(C(=O)c2ccc(OC)cc2)n2cc(C)cc(C)c12 | % | 32

Task item: Identify measured inhibition corresponding to CCOC(=O)c1cc(C(=O)c2cc(OC)c(OC)c(OC)c2)n2ccc(C#N)cc12
Reply: 13

Task item: Identify measured inhibition corresponding to CCOC(=O)c1cc(C(=O)c2cc(OC)c(OC)c(OC)c2)n2cccc(C#N)c12
Reply: 69

// provenance: ChEMBL document CHEMBL3352214
